Target: Angiotensin-I-converting enzyme (ACE) (Oryctolagus cuniculus, UniProt P12822)
Construct: purchased Sigma-Aldrich (Shanghai, China)
Sequence (P12822 34-1310): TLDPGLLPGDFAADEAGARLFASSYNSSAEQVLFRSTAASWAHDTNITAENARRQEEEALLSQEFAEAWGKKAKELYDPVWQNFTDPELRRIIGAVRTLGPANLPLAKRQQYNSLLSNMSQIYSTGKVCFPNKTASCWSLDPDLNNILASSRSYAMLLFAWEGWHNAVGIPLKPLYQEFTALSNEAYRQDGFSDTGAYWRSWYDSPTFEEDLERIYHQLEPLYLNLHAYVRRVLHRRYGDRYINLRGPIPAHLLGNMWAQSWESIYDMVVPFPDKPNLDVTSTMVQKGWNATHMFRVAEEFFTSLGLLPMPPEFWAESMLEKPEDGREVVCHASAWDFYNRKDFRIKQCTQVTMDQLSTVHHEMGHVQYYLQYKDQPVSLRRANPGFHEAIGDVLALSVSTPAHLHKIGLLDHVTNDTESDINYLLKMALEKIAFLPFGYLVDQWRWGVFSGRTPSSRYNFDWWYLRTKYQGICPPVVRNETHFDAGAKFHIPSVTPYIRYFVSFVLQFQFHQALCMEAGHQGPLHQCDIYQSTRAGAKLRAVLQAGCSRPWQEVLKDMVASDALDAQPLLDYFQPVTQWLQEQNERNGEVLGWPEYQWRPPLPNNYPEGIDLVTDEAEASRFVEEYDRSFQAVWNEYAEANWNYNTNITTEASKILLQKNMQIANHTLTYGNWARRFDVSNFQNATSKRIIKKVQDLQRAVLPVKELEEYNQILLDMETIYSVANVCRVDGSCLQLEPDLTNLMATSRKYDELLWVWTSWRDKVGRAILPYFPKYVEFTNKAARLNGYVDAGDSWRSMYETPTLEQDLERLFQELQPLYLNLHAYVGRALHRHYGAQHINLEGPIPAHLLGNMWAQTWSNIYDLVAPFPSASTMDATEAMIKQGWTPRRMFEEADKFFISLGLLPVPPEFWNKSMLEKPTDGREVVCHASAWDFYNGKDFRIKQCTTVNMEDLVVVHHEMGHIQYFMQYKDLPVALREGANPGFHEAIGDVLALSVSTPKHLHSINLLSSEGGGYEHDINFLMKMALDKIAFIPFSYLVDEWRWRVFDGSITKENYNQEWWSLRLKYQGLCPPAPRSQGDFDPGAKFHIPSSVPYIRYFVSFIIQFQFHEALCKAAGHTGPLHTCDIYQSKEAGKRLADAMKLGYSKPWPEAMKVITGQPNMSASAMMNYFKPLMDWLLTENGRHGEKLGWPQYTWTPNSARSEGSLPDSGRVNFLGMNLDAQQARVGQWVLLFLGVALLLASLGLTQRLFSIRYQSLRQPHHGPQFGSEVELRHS
Test: In vitro assay of ACE inhibitory activity
Type: biochemical
Details: peptide purified from POMPH; logarithmic regression; triplicate, mean ± SD
pIC50: −log10 of the molar value. Where a SMILES comes first, the peptide text is derived from it.

MOLECULE	MEASURED_ON	pIC50
C[C@H](NC(=O)[C@H](Cc1c[nH]c2ccccc12)NC(=O)CN)C(=O)O [GWA, Gly-Trp-Ala] (H-Gly-Trp-Ala-OH)	Angiotensin-I-converting enzyme (ACE) (Oryctolagus cuniculus, UniProt P12822)	3.96
CC(C)C[C@H](NC(=O)[C@@H](N)Cc1c[nH]cn1)C(=O)N[C@@H](Cc1c[nH]cn1)C(=O)N[C@H](C(=O)O)[C@@H](C)O [HLHT, His-Leu-His-Thr] (H-HLHT-OH)	Angiotensin-I-converting enzyme (ACE) (Oryctolagus cuniculus, UniProt P12822)	3.34
